Where do the numbers come from? From ChEMBL document CHEMBL3763144.

- Assay summary: Stability of the compound in phosphate buffered saline assessed as compound stability time at pH 3 by UPLC-MS analysis
- Format: physicochemical
- Condition notes: buffer
Metric: Stability

Examples with answers:
structure_as_smiles=COc1cc2ncnc(-n3nc(-c4ccccn4)nc3N)c2cc1OCCCNC(=O)OC(C)C experimental_result="> 24 h"
structure_as_smiles=COCCOc1cc2c(-n3nc(-c4ccccn4)nc3N)ncnc2cc1OC experimental_result="> 24 h"
structure_as_smiles=COc1cc2ncnc(-n3nc(-c4ccccn4)nc3N)c2cc1OC experimental_result="> 48 h"

Now for a further compound.
Data point: `COCCOc1cc2ncnc(-n3nc(-c4ccccn4)nc3N)c2cc1OCCOC` ; Stability = > 48 h
